protocol_details: Stability of the compound in human microsomes
Format: ADME, Microsome
test_parameters: read-out: Stability

smiles	units_symbol	microsomal CLint
NCC(=O)Nc1cncc(-c2nn3c(=O)cc(N4CCNCC4)nc3s2)c1	µL/min/mg	23.2
